Test system: HEK293FT dCK*-only
Assay: relative growth in counter assay (no AraC = 100%, AraC + DMSO = 0%); higher = more growth rescue independent of IKZF1
Conditions: compound concentration: 5 uM; AraC concentration: 0.3 uM; overnight pretreatment + 4 days AraC
Mark True for reported relative growth in counter assay of -30% or greater; mark False for anything smaller.

See these solved cases before continuing.
- molecule: "COc1cc2c(c(OC)c1OC)-c1ccc(OC)c(=O)cc1[C@@H](NC(C)=O)CC2"
  label: "False"
- molecule: "CC[C@H]1C2CC3[C@@H]4N(C)c5ccccc5[C@]45C[C@@H](C2C5O)N3[C@@H]1O (stereo partly drawn)"
  label: "True"
- molecule: "CC[C@@H](C(N)=O)N1CCCC1=O"
  label: "True"
- molecule: "COc1cc([C@@H]2c3cc4c(cc3[C@H](O)[C@H]3COC(=O)[C@H]23)OCO4)cc(OC)c1OC"
  label: "False"
- molecule: "c1ccc2c(c1)Sc1ccccc1N2CC1CN2CCC1CC2 (stereo not drawn) [levomequitazine]"
  label: "True"
- molecule: "Cc1cc(O)c2c(=O)c3c(O)cc(O)c4c5c(O)cc(O)c6c(=O)c7c(O)cc(C)c8c1c2c(c34)c(c78)c65 [Hypericin]"
  label: "True"

Moving on to another molecule below.
**Q:** relative growth in counter assay >= -30% for ClC(C=C3)=C(Cl)C=[C@@]3[C@H]2C1=CC=CC=C1[C@H](NC)C2 [indatraline] ?
**A:** True

====

Provide the recorded inhibition of IKZF1 HTRF signal for the entries that follow.
Molecular target: IKZF1 (dCK*-IKZF1 fusion in HEK293FT)
Assay: inhibition of IKZF1 HTRF signal (DMSO = 0%, pomalidomide 10 uM = 100%); higher = lower IKZF1 protein level
Conditions: compound concentration: 5 uM, overnight (~20 h)

Examples with their reported inhibition of IKZF1 HTRF signal follow.
- compound: "O=C(CCCN1CCC(n2c(=O)[nH]c3ccccc32)CC1)c1ccc(F)cc1"
  inhibition of IKZF1 HTRF signal: "-18.1%"
- compound: "CC(C)C[C@H](NC(=O)[C@@H](O)[C@H](N)Cc1ccccc1)C(=O)NCCOCCOCCOCC(=O)O[C@H]1CC[C@H]2[C@@H]3CC[C@H]4CC(=O)CC[C@]4(C)[C@H]3CC[C@]12C.O=C(O)C(F)(F)F [PROTAC AR Degrader-4 (TFA)]"
  inhibition of IKZF1 HTRF signal: "16.9%"
- compound: "NCC1(CC(=O)O)CCCCC1"
  inhibition of IKZF1 HTRF signal: "-1.54%"

Working through the 5 compounds below one at a time, give inhibition of IKZF1 HTRF signal for each.
1. C[C@]12CCC3C(CC[C@]4(O)C[C@@H](O)CC[C@]34C=O)[C@@]1(O)CCC2C1=CC(=O)OC1 (stereo partly drawn) [Strophantidin]
2. COC[C@H]1OC(=O)c2coc3c2[C@@]1(C)C1=C(C3=O)[C@@H]2CCC(=O)[C@@]2(C)C[C@H]1OC(C)=O
3. O=C1c2ccccc2C(=O)c2ccccc21
4. CCCCCCCCCCC(=O)O[C@H]1CC[C@H]2[C@@H]3CCC4=CC(=O)CC[C@]4(C)[C@H]3CC[C@]12C [Testosterone (undecanoate)]
5. CC[C@H]1C2CC3[C@@H]4N(C)c5ccccc5[C@]45C[C@@H](C2C5O)N3[C@@H]1O (stereo partly drawn)

**A:**
74.7%
1.66%
-34.9%
-31.5%
-0.05%

Data origin: the supplement of paper PMC12340641
